- STUDY_TARGET: human ether-à-go-go-related gene (hERG) potassium channel (human);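 further: peak tail current of the secondary pulse compared with the same well before compound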
- Sequence (Q12809 whole entry, looked up): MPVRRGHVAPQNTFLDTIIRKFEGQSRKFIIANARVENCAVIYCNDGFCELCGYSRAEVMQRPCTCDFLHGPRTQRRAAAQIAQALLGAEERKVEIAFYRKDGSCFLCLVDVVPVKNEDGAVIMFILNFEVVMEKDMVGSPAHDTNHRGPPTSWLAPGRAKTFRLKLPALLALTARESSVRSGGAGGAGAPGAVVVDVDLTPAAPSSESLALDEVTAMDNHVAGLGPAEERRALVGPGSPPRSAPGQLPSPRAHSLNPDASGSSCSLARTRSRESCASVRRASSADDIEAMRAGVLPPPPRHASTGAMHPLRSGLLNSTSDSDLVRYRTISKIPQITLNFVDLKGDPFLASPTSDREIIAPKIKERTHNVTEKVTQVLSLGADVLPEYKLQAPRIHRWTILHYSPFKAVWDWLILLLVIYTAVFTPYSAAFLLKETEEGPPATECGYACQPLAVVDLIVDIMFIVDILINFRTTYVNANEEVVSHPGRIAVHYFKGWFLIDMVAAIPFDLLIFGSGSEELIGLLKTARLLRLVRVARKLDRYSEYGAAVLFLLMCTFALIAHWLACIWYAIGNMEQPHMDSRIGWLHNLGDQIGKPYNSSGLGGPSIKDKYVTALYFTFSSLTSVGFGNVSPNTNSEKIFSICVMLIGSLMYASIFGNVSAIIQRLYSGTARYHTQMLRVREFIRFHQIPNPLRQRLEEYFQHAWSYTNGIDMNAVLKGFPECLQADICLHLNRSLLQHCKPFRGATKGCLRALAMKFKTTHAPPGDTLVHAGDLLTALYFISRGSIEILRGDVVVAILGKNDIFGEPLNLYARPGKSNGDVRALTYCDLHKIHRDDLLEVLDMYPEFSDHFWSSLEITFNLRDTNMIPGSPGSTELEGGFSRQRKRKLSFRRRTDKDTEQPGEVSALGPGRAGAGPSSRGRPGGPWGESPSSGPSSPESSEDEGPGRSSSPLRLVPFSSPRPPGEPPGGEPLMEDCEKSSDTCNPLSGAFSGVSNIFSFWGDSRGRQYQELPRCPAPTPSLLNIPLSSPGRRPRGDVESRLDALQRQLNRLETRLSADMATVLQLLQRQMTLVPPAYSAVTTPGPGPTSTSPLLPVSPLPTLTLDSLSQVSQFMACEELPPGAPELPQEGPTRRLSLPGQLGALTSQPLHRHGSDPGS
- TEST_DETAILS: primary screen, population patch clamp on CHO cells stably expressing hERG; higher = less effect of the substance
The campaign covered roughly 310,000 compounds. About 14,000 (4.5%) showed an effect of 50% or more. Effects have a minus sign here. The sample as a whole holds a higher share of strong results than the screen did.
MEASUREMENT_LABEL: hERG current change (%, negative = inhibition) at 10uM (%)
Quick note: give the figure in %, leave out the unit.

Name the reported hERG current change (%, negative = inhibition) at 10uM value associated with the molecule CC(=O)Nc1cccc(NC(=O)CSc2nccn2Cc2ccco2)c1
14

Item: O=C(Nc1ccc2c(c1)OCO2)NC1CCN(Cc2ccccc2)CC1
-24.8

O=C(OCC(=O)N1CCCC1=O)c1ncc(Cl)c(Cl)c1Cl , same question.
0.304

And Nc1c(Cl)c(Cl)nc(C(=O)OCC(=O)N2CCCC2=O)c1Cl ?
-22.5

One more molecule: COc1cc(/C=C/C(=O)Nc2ccc(C)cc2)cc(OC)c1OC
-2.49

Moving on to Oc1cccc(-n2nnnc2SCc2ccccc2F)c1
7.33

Next entry: Cn1c(NC(=O)c2ccccc2)c(-c2cccs2)c(=O)c2ccccc21
7.07

Then this molecule: CC(Oc1ccc(Cl)cc1Cl)C(=O)NCCC1=CCCCC1 (stereo not shown)
4.46

Try this molecule too: Cc1ccc(C(C)C)c(OC(=O)/C=C/c2ccccc2)c1
9.52

Let us now turn to CCN(CC(=O)NC1CCS(=O)(=O)C1)C(=O)COc1ccccc1-c1ccccc1 (stereo not shown)
11.7

Measured values drawn from paper PMC4336329 for this set.
